Target: T1, Fusion protein of extracellular domain of human TIGIT and His-tag (human TIGIT ECD-his) (human)
T1 chain: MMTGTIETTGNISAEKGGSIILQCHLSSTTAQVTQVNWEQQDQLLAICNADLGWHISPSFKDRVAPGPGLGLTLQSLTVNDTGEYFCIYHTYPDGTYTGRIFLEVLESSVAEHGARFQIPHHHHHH
Assay: BIAcore
Threshold check on koff: strictly below 0.0002 s⁻¹ is Criterion met; on or above 0.0002 s⁻¹ is Criterion not met.

binder="TIGIT-CHI-005 (antibody, V domains shown, Human-mouse chimeric antibody) VH: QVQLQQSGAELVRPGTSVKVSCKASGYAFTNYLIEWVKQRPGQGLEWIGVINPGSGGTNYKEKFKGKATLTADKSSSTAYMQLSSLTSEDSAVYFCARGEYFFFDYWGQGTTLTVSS VL: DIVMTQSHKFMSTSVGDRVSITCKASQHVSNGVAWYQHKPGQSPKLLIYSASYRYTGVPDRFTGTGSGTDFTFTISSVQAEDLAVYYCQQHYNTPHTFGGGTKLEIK" class_assignment="Criterion met"
binder="TIGIT-006-H5L3 (antibody, V domains shown, Humanized anti-TIGIT antibody) VH: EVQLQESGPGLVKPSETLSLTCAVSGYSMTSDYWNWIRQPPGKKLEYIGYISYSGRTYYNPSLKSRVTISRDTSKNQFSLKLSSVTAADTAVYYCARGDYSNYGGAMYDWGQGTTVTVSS VL: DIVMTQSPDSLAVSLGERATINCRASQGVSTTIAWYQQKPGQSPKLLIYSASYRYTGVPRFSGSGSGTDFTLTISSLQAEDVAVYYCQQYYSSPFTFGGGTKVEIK" class_assignment="Criterion met"
binder="TIGIT-070-H2L1 (antibody, V domains shown, Humanized anti-TIGIT antibody) VH: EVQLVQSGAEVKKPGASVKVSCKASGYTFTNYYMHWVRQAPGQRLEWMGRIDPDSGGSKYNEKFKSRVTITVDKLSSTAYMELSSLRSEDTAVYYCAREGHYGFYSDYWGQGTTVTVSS VL: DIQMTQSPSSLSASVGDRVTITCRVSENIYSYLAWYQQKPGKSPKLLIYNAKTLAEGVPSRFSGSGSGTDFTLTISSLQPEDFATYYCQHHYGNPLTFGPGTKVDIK" class_assignment="Criterion met"

Please state whether koff is below 0.0002 s⁻¹ for TIGIT-005-H2L1d (antibody, V domains shown, Humanized anti-TIGIT antibody with NG-site mutation in VL) VH: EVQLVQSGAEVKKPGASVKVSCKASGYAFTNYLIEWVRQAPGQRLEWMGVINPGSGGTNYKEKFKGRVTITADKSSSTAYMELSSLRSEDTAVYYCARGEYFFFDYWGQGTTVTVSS VL: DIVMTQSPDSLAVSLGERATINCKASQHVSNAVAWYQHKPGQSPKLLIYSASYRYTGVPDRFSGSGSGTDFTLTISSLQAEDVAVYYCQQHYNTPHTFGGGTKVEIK
Criterion not met

Please state whether koff is below 0.0002 s⁻¹ for TIGIT-006-H3L1 (antibody, V domains shown, Humanized anti-TIGIT antibody) VH: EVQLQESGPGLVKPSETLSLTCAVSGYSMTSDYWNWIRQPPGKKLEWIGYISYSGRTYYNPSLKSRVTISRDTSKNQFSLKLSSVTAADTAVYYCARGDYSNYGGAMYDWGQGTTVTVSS VL: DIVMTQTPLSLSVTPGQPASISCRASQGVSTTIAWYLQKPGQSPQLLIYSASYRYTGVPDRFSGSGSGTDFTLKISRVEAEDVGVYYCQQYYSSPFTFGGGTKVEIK
Criterion not met
